Kindly state unfolding free energy for each of the entries shown.
B1: Alpha-lactalbumin, P00712 (parent)
chain: MMSFVSLLLVGILFHATQAEQLTKCEVFQKLKDLKDYGGVSLPEWVCTAFHTSGYDTQAIVQNNDSTEYGLFQINNKIWCKDDQNPHSRNICNISCDKFLDDDLTDDIVCAKKILDKVGINYWLAHKALCSEKLDQWLCEKL

Variants of: B1
Details: Capra hircus; pH 7.5; 25 °C; GdnHCl; CD; Tris 20 mM; Ca2+ 10 mM; structure 1HFY; whole UniProt chain shown
Please give a number only; it is taken to be in kcal/mol.

Query string: Which unfolding free energy value belongs to MMSFVSLLLVGILFHATQAEQLTKCEVFQKLKDLKDYGGVSLPEFVCTAFHTSGYDTQAIVQNNDSTEYGLFQINNKIWCKDDQNPHSRNICNISCDKFLDDDLTDDIVCAKKILDKVGINYWLAHKALCSEKLDQWLCEKL [W45F] ?
Result string: 7.84

Query string: # get_value(readout='unfolding free energy', item= MMSFVSLLLVGILFHATQAEQLTKCEVFQKLKDLKDYGGVSLPEWVCTAFHTSGYDTQAIVQNNDSTEYGLFQINNKIFCKDDQNPHSRNICNISCDKFLDDDLTDDIVCAKKILDKVGINYWLAHKALCSEKLDQWLCEKL [W79F] )
Result string: 8.97

Query string: # lookup: unfolding free energy of MMSFVSLLLVGILFHATQAEQLTKCEVFQKLKDLKDYGGVSLPEWVCTAFHTSGYDTQAIVQNNDSTEYGLFQINNKIWCKDDQNPHSRNICNISCDKFLDDDLTDDIVCAKKILDKVGINYWLAHKALCSEKLDQFLCEKL [W137F]
Result string: 10.4

Query string: I would be grateful if you could share the reported unfolding free energy for MMSFVSLLLVGILFHATQAEQLTKCEVFQKLKDLKDYGGVSLPEWVCTAFHTSGYDTQAIVQNNDSTEYGLFQINNKIWCKDDQNPHSRNICNISCDKFLDDDLTDDIVCAKKILDKVGINYFLAHKALCSEKLDQWLCEKL [W123F] .
Result string: 7.97
